FYI, the data here is from PubChem BioAssay AID1963827.

Test system: 994946-033-R-J1-PDC complex spheroid viability
Assay Name: Anticancer human tumor 994946-033-R-J1-PDC patient-derived melanoma cell line growth inhibition [POLQ]
Conditions: curve of first compound; second compound 0.1 µM
pIC50: −log10 of the molar value.
Quantity: pIC50

Prompt line: Query (molecule): CCc1cc2c(N3CCc4c(cc(Cn5ccnc5)cc4-c4cn(C)nc4C(F)(F)F)C3=O)cc(C)nc2c(OC)n1 + COC1C(OC(N)=O)C(O)C(Oc2ccc3c(O)c(NC(=O)c4ccc(O)c(CC=C(C)C)c4)c(=O)oc3c2C)OC1(C)C ; field requested: pIC50
Response line: < 5.00

Prompt line: Now try CCc1c2c(nc3ccc(O)cc13)-c1cc3c(c(=O)n1C2)COC(=O)[C@]3(O)CC + Cc1cccc(N(C)C(=O)C2C(O)CCN2c2nc(C)cc(C(F)(F)F)c2C#N)c1 .
Response line: > 8.50

Prompt line: Now try CCc1cc2c(N3CCc4c(cc(Cn5ccnc5)cc4-c4cn(C)nc4C(F)(F)F)C3=O)ccnc2c(OC)n1 + Cc1cccc(N(C)C(=O)C2C(O)CCN2c2nc(C)cc(C(F)(F)F)c2C#N)c1 .
Response line: < 5.00

Prompt line: Now try CNCc1ccc(-c2[nH]c3cc(F)cc4c3c2CCNC4=O)cc1 + Cc1cccc(N(C)C(=O)C2C(O)CCN2c2nc(C)cc(C(F)(F)F)c2C#N)c1 .
Response line: < 5.00

Prompt line: Now try CC(=O)O[C@H]1C(=O)[C@@]2(C)[C@H]([C@H](OC(=O)c3ccccc3)[C@]3(O)C[C@H](OC(=O)[C@H](O)[C@@H](NC(=O)c4ccccc4)c4ccccc4)C(C)=C1C3(C)C)[C@]1(OC(C)=O)CO[C@@H]1C[C@@H]2O + Nc1ccc(C#CCN(C(=O)Cc2ncc(C(F)(F)F)cc2C(F)(F)F)c2ccc(F)cc2)nn1 .
Response line: > 8.02

Prompt line: Now try COc1cccc2c1C(=O)c1c(O)c3c(c(O)c1C2=O)CC(O)(C(=O)CO)CC3OC1CC(N)C(O)C(C)O1 (centres undefined) + Nc1ccc(C#CCN(C(=O)Cc2ncc(C(F)(F)F)cc2C(F)(F)F)c2ccc(F)cc2)nn1 .
Response line: > 7.50

Prompt line: Now try Nc1ccn(C2OC(CO)C(O)C2(F)F)c(=O)n1 (centres undefined) + COC1C(OC(N)=O)C(O)C(Oc2ccc3c(O)c(NC(=O)c4ccc(O)c(CC=C(C)C)c4)c(=O)oc3c2C)OC1(C)C .
Response line: > 7.50

Prompt line: Now try C=CC(=O)N1CCN(c2nc(=O)n(-c3c(C)ccnc3C(C)C)c3nc(-c4c(O)cccc4F)c(F)cc23)C(C)C1 (centres undefined) + COC1C(OC(N)=O)C(O)C(Oc2ccc3c(O)c(NC(=O)c4ccc(O)c(CC=C(C)C)c4)c(=O)oc3c2C)OC1(C)C .
Response line: < 5.00

Prompt line: Now try COc1cc2cc(C(=O)CCC(=O)O)sc2cc1OC + Cc1cccc(N(C)C(=O)C2C(O)CCN2c2nc(C)cc(C(F)(F)F)c2C#N)c1 .
Response line: < 5.00

* * *

For each entry below, report its pIC50 value.
Test system: 994946-033-R-J1-PDC complex spheroid viability
Assay Name: Anticancer human tumor 994946-033-R-J1-PDC cell line growth inhibition [POLQ];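 note: spheroids exposed to drugs for 7 days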
Conditions: curve of first compound; second compound 0.316 µM
On this scale, pIC50 is minus log10 of a concentration expressed in M (mol/L).

Prompt line: Query (molecule): CCCS(=O)(=O)Nc1ccc(F)c(C(=O)c2c[nH]c3ncc(-c4ccc(Cl)cc4)cc23)c1F + Nc1ccc(C#CCN(C(=O)Cc2ncc(C(F)(F)F)cc2C(F)(F)F)c2ccc(F)cc2)nn1 ; field requested: pIC50
Response line: 5.17

Prompt line: Now try CC1COCCN1c1cc(-c2ccnn2C)c2ccnc(-c3ccn[nH]3)c2n1 (stereo not given) + COC1C(OC(N)=O)C(O)C(Oc2ccc3c(O)c(NC(=O)c4ccc(O)c(CC=C(C)C)c4)c(=O)oc3c2C)OC1(C)C .
Response line: 6.82

Prompt line: Now try COc1ccc([C@@H](O)c2cc(-c3ncnc4cc(N5CCOCC5)ccc34)c(F)cc2Cl)nn1 + COC1C(OC(N)=O)C(O)C(Oc2ccc3c(O)c(NC(=O)c4ccc(O)c(CC=C(C)C)c4)c(=O)oc3c2C)OC1(C)C .
Response line: 5.31

Prompt line: Now try O=c1[nH]cc(F)c(=O)[nH]1 + COC1C(OC(N)=O)C(O)C(Oc2ccc3c(O)c(NC(=O)c4ccc(O)c(CC=C(C)C)c4)c(=O)oc3c2C)OC1(C)C .
Response line: 5.15

Prompt line: Now try CC1COCCN1c1cc(C2(S(C)(=N)=O)CC2)nc(-c2ccnc3[nH]ccc23)n1 (stereo not given) + Nc1ccc(C#CCN(C(=O)Cc2ncc(C(F)(F)F)cc2C(F)(F)F)c2ccc(F)cc2)nn1 .
Response line: 5.70

Prompt line: Now try O=C(Nc1ccc(O)c(NS(=O)(=O)c2ccc(F)cc2)c1)c1ccc(-c2ccccc2)cc1 + Cc1cccc(N(C)C(=O)C2C(O)CCN2c2nc(C)cc(C(F)(F)F)c2C#N)c1 .
Response line: 5.19
